system: AP-1; test: Effect of the zinc salt of acylamino acid on AP-1 activation by ultraviolet light (gel shift assay); assay type: cell-based; conditions: human dermal fibroblasts; 50 μM test compound added 18 hours before UVA 20 J/cm2; nuclear protein collected after 4 to 5 hours
Below, each entry is listed with its recorded Inhibition ratio of activation of AP-1.

MOLECULE	STUDY_SYSTEM	Inhibition ratio of activation of AP-1 [%]
CCCCCCCCCCCC(=O)N[C@@H](CCC(=O)[O-])C(=O)[O-].[Zn+2] [Zinc salt of N-lauroyl-L-glutamic acid]	AP-1	89.6
CCCCCCCCCCCC(=O)NCC(=O)[O-].CCCCCCCCCCCC(=O)NCC(=O)[O-].[Zn+2] [Zinc salt of N-lauroyl glycine]	AP-1	59.2
CCCCCCCCCCCC(=O)[O-].CCCCCCCCCCCC(=O)[O-].[Zn+2] [Zinc salt of lauric acid]	AP-1	9.1
NCC(=O)[O-].NCC(=O)[O-].[Zn+2] [Zinc salt of glycine]	AP-1	−72.8
N[C@@H](CCC(=O)[O-])C(=O)[O-].[Zn+2] [Zinc salt of L-glutamic acid]	AP-1	2.4
CCCCCCCCCCCC(=O)N[C@@H](Cc1c[nH]cn1)C(=O)[O-].CCCCCCCCCCCC(=O)N[C@@H](Cc1c[nH]cn1)C(=O)[O-].[Zn+2] [Zinc salt of N-lauroyl-L-histidine]	AP-1	54.8
